Provenance of the data: paper PMC6131548

target: T1, hTsr2E64G (ITC) (human, UniProt Q969E8 1-191, E64G)
T1 construct: human Tsr2 with the Diamond-Blackfan anemia-linked mutation E64G; also called E64G-DBA variant; hTsr2E64G mutant; source: E. coli BL21
T1 sequence (looked up): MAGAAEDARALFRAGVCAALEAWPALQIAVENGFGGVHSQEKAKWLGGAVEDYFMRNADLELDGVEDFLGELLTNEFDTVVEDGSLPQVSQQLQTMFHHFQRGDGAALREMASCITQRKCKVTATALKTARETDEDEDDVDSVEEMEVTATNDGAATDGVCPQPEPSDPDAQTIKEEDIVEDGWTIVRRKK
assay.text: ITC; VP-ITC; 20–40 µM Tsr2 variant in the cell, 400–800 µM ESS2 peptide in the syringe; 25 °C, 20 mM NaPi pH 7.1, 1 mM DTT, 10 µM EDTA
setup.conditions: both partners purified
quantity: pKd
By convention, pKd is the negative base-10 log of a molar concentration.

Query: Tell me its pKd given RFRPAGAAPRPPPKPM (Human limits are not printed. They are taken by ungapped alignment to the yeast ESS2 construct in PDB 6G04 (eS26 residues 100-119; the text defines ESS2 as 99-119), running to the human C-terminus. …) [human ESS2 peptide] as the entry.
Response: 4.05
